assay: Acute toxicity, single intraperitoneal dose; assay type: in vivo, Füllinsdorf albino mice; conditions: Füllinsdorf albino, mouse, in vivo, ip; single i.p. dose in rape oil; recorded 20 days after

{"columns": ["COMPOUND", "LD50 at 20 days (mg/kg)"],
 "data": [
  ["CC(=CC=C/C(C)=C/C(=O)O)/C=C/C1=C(C)CCCC1(C)C (stereo in doubt) [9-cis retinoic acid]", 1400]
]}

---

experiment: Acute toxicity, single intraperitoneal dose; format: in vivo, Füllinsdorf albino mice; settings: Füllinsdorf albino, mouse, in vivo, ip; single i.p. dose in rape oil; recorded 24 hours after
ATTRIBUTE_MEASURED: LD50 at 24 hours

{"columns": ["COMPOUND", "OBSERVED"],
 "data": [
  ["CC(=CC=C/C(C)=C/C(=O)O)/C=C/C1=C(C)CCCC1(C)C (stereo in doubt) [9-cis retinoic acid]", "> 4000 mg/kg"]
]}

---

assay: Acute toxicity, single intraperitoneal dose; format: in vivo, Füllinsdorf albino mice; settings: Füllinsdorf albino, mouse, in vivo, ip; single i.p. dose in rape oil; recorded 10 days after
ATTRIBUTE_MEASURED: LD50 at 10 days (mg/kg)

{"columns": ["COMPOUND", "UNIT", "OBSERVED"],
 "data": [
  ["CC(=CC=C/C(C)=C/C(=O)O)/C=C/C1=C(C)CCCC1(C)C (stereo in doubt) [9-cis retinoic acid]", "mg/kg", 1400]
]}
